Test system: DMS-273
ASSAY METHOD TEXT: NCI tumour cell line growth inhibition, 48 h
The source made the active and inactive calls. Cut-off read from the data, not from the text of the source: active = GI50 up to about 1.1 µM and inactive = higher.
Pick from true = active, false = inactive when you respond.

O=C1OC(/C=C/c2ccccc2)C(=O)C1=O (stereo not given); false

Request: Query: recorded result category for CCOc1cc2c(C(=O)CC)c(O)ccc2o1 in this test
Result: false

Request: Query: recorded result category for O=C(CC(=O)N1N=C(n2ccc3ccccc32)CC1c1ccccc1)Nc1cccc(Cl)c1 (stereo not given) in this test
Result: false

Request: Query: recorded result category for COc1ccc(C2NC(c3ccc(OC)cc3)C(C)C(=O)C2C)cc1 (stereo not given) in this test
Result: false

Request: Query: recorded result category for CCCCCCCCCCCCCCCCOC(=O)C(C(=O)OCCCCCCCCCCCCCCCC)[N+](C)(C)CCOC(C)=O in this test
Result: false

Request: Query: recorded result category for C=CCC1(CN(C)C)CC/C(=C\c2cc(OC)c(OC)c(OC)c2)C1=O (stereo not given) in this test
Result: false

Request: Query: recorded result category for COc1ccc(OC)c(NC(=O)C2=C(C)NC(C)=C(C(=O)Nc3cc(OC)ccc3OC)C2c2ccccc2)c1 in this test
Result: false

Request: Query: recorded result category for Cn1cnc([N+](=O)[O-])c1Sc1ccccn1 in this test
Result: false

----------
Record form. Attribute: GI50. Fill in for each entry.
Test system: LOX IMVI
ASSAY METHOD TEXT: NCI tumour cell line growth inhibition, 48 h
Calls of active or inactive are those of the source. Rule as the data show it: active = GI50 up to about 1.1 µM and inactive = higher.

CCNC(=O)N(CC)CN(CC)C(=O)NCC; > 100 µM (inactive)

Please state GI50 for every compound in the list that follows.
1. CCCC(C(=O)OC)C1N/C(=N/C#N)N(Cc2ccccc2)C1=O (stereo not given)
2. CCOC(=O)N1CCN(C(=O)Nc2cccc3ccccc23)CC1

Result:
1. > 100 µM (inactive)
2. > 10 µM (inactive)

----------
Test system: IGROV-1
ASSAY METHOD TEXT: NCI tumour cell line growth inhibition, 48 h
The source made the active and inactive calls. Rule as the data show it: active = GI50 up to about 1.1 µM and inactive = higher.
Pick from true (1) = active, false (0) = inactive when you respond.

Some solved entries appear below for comparison.
O=C1Nc2ccc([N+](=O)[O-])cc2/C1=N/NC(=S)Nc1ccccc1; false (0)
COc1cc(C2c3cccc4cccc(c34)C3CCC(=O)N32)cc(OC)c1O (stereo unspecified); false (0)

Request: Query: recorded result category for O=C(CC(=O)N1N=C(n2ccc3ccccc32)CC1c1ccccc1)Nc1cccc(Cl)c1 (stereo unspecified) in this test
Result: false (0)

Request: Query: recorded result category for Cn1c(-c2cccs2)cc(-c2ccsc2)c1-c1cccs1 in this test
Result: false (0)

Request: Query: recorded result category for CC(Br)C(=O)c1ccc2cc(Br)c3ccccc3c2c1 (stereo unspecified) in this test
Result: false (0)

Request: Query: recorded result category for Nc1ccc(/N=N/c2ccccc2)cc1 in this test
Result: false (0)

Request: Query: recorded result category for CC(=O)OC1COC(n2c3ccccc3c3ccc4c5ccccc5[nH]c4c32)C(OC(C)=O)C1OC(C)=O (stereo unspecified) in this test
Result: true (1)

Request: Query: recorded result category for O=CN/C=C\c1cc(O)ccc1O in this test
Result: false (0)

Request: Query: recorded result category for Fc1sc2c(c1F)C1CCC2C1 (stereo unspecified) in this test
Result: false (0)

Request: Query: recorded result category for Cn1c(=O)c(C(c2ccc([N+](=O)[O-])cc2)c2c(O)c3ccccc3n(C)c2=O)cc2ccccc21 (stereo unspecified) in this test
Result: false (0)

Request: Query: recorded result category for Nc1nc(O)c([I+]c2ccccc2)c(=O)[nH]1 in this test
Result: false (0)

----------
Test system: EKVX
ASSAY METHOD TEXT: NCI tumour cell line growth inhibition, 48 h
Activity calls are given as the source filed them. No stated cut-off is given here; in the data, active = GI50 up to about 1.1 µM and inactive = higher.
Record form. Attribute: GI50. Fill in for each entry.

Here are 3 molecules together with their reported answers.
OC(c1ccco1)C(F)(F)c1nc2ccccc2o1 (stereo not given); > 100 µM (inactive)
CN(C)C1(c2cc3ccccc3s2)CCCCC1; > 100 µM (inactive)
COc1ccc(C2NC(c3ccc(OC)cc3)C(C)C(=O)C2C)cc1 (stereo not given); 67 µM (inactive)

Please state GI50 for every molecule in the list that follows.
1. Cc1cc(C)nc(NS(=O)(=O)c2ccc(Nc3c4ccc(Cl)cc4nc4c(C(=O)Nc5ccc(S(N)(=O)=O)cc5)cccc34)cc2)n1
2. Cc1ccsc1/C(S)=N\c1ccc(Cl)c(/C=N/OC(C)(C)C)c1
3. Cn1c(=O)c(C(c2ccc([N+](=O)[O-])cc2)c2c(O)c3ccccc3n(C)c2=O)cc2ccccc21 (stereo not given)
4. CCn1c2c(c3ccccc3c1=O)C(=O)c1ccccc1-2
5. COc1c(C(=O)NCCN(CCNC(=O)c2cccc(-c3cccc(C(=O)N(C)C)c3OC)c2OC)CCNC(=O)c2cccc(-c3cccc(C(=O)N(C)C)c3OC)c2OC)cccc1-c1cccc(C(=O)N(C)C)c1OC

Result:
["21 µM (inactive)", "24.6 µM (inactive)", "41.7 µM (inactive)", "> 100 µM (inactive)", "47.6 µM (inactive)"]

Please state GI50 for every molecule in the list that follows.
1. Fc1sc2c(c1F)C1CCC2C1 (stereo not given)
2. Cc1ccccc1C1=C(C(=O)Nc2ccc(Cl)c(Cl)c2)NC(=S)NC1N (stereo not given)
3. O=C(CC(=O)N1N=C(n2ccc3ccccc32)CC1c1ccccc1)Nc1cccc(Cl)c1 (stereo not given)

Result:
["> 100 µM (inactive)", "> 100 µM (inactive)", "> 100 µM (inactive)"]

----------
Record form. Attribute: GI50. Fill in for each entry.
Tested on: NCI-H23
ASSAY METHOD TEXT: NCI tumour cell line growth inhibition, 48 h
Calls of active or inactive are those of the source. Cut-off read from the data, not from the text of the source: active = GI50 up to about 1.1 µM and inactive = higher.

Here are 6 compounds together with their reported answers.
CC(C)CCNC(=O)c1ccc(CNC(=O)/C=C/c2ccc3ccccc3c2)cc1; > 100 µM (inactive)
CC1(C)OCN(c2ccc(Cl)cc2)Cn2c1nc1ccccc12; 18.1 µM (inactive)
COc1ccc(OC)c(NC(=O)C2=C(C)NC(C)=C(C(=O)Nc3cc(OC)ccc3OC)C2c2ccccc2)c1; > 100 µM (inactive)
CC1[C@@]2(CCC(C)(C)O2)O[C@@H]2C=C3C4CCC5Cc6nc7c(nc6C[C@@]5(C)C4C[C@H](O)[C@@]3(C)[C@]12O)CC1CCC2C3=C[C@H]4O[C@@]5(O[C@@](C)(CO)C[C@@H]5O)C(C)[C@@]4(O)[C@]3(C)[C@@H](O)CC2[C@]1(C)C7 (stereo not given in full); 0.118 µM (active)
O=C1c2ccccc2C(=O)N1CC(CN1C(=O)c2ccccc2C1=O)(C(=O)OCc1ccccc1)C(=O)OCc1ccccc1; > 100 µM (inactive)
O=c1[nH]cc(COCCO)c(=O)[nH]1; > 100 µM (inactive)

Please state GI50 for every compound in the list that follows.
1. N#CS/C(Cl)=C(/C(Cl)=C(Cl)Cl)[N+](=O)[O-]
2. CC(Cl)CN1c2ccccc2Sc2ccc(Cl)cc21 (stereo not given)

Result:
1: 33.3 µM (inactive); 2: > 10 µM (inactive)

Please state GI50 for every compound in the list that follows.
1. CC[C@H](C)C1=C(O)[N@+]2([O-])Oc3ccc(-c4c(O)c(O)c(-c5ccc(OC(C)=O)cc5)c(OC(C)=O)c4OC(C)=O)cc3O[C@]2([C@@H](C)CC)C(=O)N1O
2. Cc1ccccc1C1=[N+]([O-])c2ccccc2C1=O
3. N#Cc1c(O)cc(=O)n2c1[nH]c1ccccc12
4. CC12CCC(C/C1=N\NC(N)=O)C2(C)C (stereo not given)
5. CC(CO)CCNc1ncnc2c1ncn2CCC(=O)OC(C)(C)C (stereo not given)
6. Cc1cccc2cc3c(ccc4ccccc43)c[n+]12
7. CCn1cc(/C=C/C(C)c2cn(CC)c(=O)[nH]c2=O)c(=O)[nH]c1=O (stereo not given)
8. CC(C)=CCC12Cc3ccc(O)cc3C(C(C)CN1)C2C (stereo not given)

Result:
1: > 50 µM (inactive); 2: 20.3 µM (inactive); 3: > 100 µM (inactive); 4: > 100 µM (inactive); 5: > 100 µM (inactive); 6: 7.6 µM (inactive); 7: > 100 µM (inactive); 8: > 100 µM (inactive)

----------
Record form. Attribute: GI50. Fill in for each entry.
System: DU-145
ASSAY METHOD TEXT: NCI tumour cell line growth inhibition, 48 h
The source made the active and inactive calls. No stated cut-off is given here; in the data, active = GI50 up to about 1.1 µM and inactive = higher.

CC1CC(=O)N(N(C)C)C2(C#N)C(=O)N=C(N)C12C#N (stereo unspecified); > 100 µM (inactive)

Please state GI50 for every compound in the list that follows.
1. CCn1c2c(c3ccccc3c1=O)C(=O)c1ccccc1-2
2. N#CC(Cc1ccccc1)N(CCC1=CCCCC1)C(c1ccccc1)c1ccccc1 (stereo unspecified)
3. CCOC(=O)/C=C(/C(=O)OCC)n1cc(C)c(=O)n(Cc2cnnn2COCCOC(C)=O)c1=O
4. O=C1CCCC2=C1CC1=C(CCCC1=O)N2c1ccc(-c2ccccc2)cc1
5. CCOc1ccccc1Nc1ccc(N)cc1S(=O)(=O)O

Result:
1. > 100 µM (inactive)
2. > 100 µM (inactive)
3. 24.5 µM (inactive)
4. > 100 µM (inactive)
5. > 100 µM (inactive)

Please state GI50 for every compound in the list that follows.
1. NC(C(F)(F)F)(C(F)(F)F)P(=O)(Cc1ccccc1)Cc1ccccc1
2. OC(c1ccco1)C(F)(F)c1nc2ccccc2o1 (stereo unspecified)
3. Cn1ccnc1SC(F)(F)c1nc2ccccc2o1
4. CCN(CC)c1ccc(/C=C2\CCc3ccc([N+](=O)[O-])cc3C2=O)cc1
5. Cc1nc(N)c(N2CCN(Cc3ccccc3)CC2)c(O)n1

Result:
> 100 µM (inactive)
> 100 µM (inactive)
> 100 µM (inactive)
6.01 µM (inactive)
> 100 µM (inactive)

Every entry's value here was drawn from ChEMBL document CHEMBL1201862.
